Experiment: Plasma pharmacokinetics of Compound 2 in PD participants (LC-MS/MS)
Type: in vivo, human
Conditions: human, plasma, po, 15 mg, plasma, Day 1; ROW, High 15 mg oral, n = 4; read-out: Cmax, Geometric mean
RESULT TYPE: Cmax (ng/mL)
Numeric answer only, unit ng/mL assumed.

Report Cmax for CC(C)(NC(=O)O[C@@H]1CN2CCC1CC2)c1csc(-c2ccc(F)cc2)n1 [Compound 2] please.
47.1

----------
Test: Plasma pharmacokinetics of Compound 2 in PD participants (LC-MS/MS)
Format: in vivo, human
Conditions: human, plasma, po, 4 mg, Week 4; Japan, Low 4 mg once daily oral, n = 3
RESULT TYPE: Cmax at 4 weeks (ng/mL)
Numeric answer only, unit ng/mL assumed.

Report Cmax at 4 weeks for CC(C)(NC(=O)O[C@@H]1CN2CCC1CC2)c1csc(-c2ccc(F)cc2)n1 please.
56.3

----------
Assay: Plasma pharmacokinetics of Compound 2 in PD participants (LC-MS/MS)
Type: in vivo, human
Details: human, plasma, po, 15 mg, plasma, Week 4; Japan, High 15 mg once daily oral, n = 3; read-out: Cmax, mean
RESULT TYPE: Cmax (ng/mL)
Numeric answer only, unit ng/mL assumed.

Report Cmax for CC(C)(NC(=O)O[C@@H]1CN2CCC1CC2)c1csc(-c2ccc(F)cc2)n1 please.
145

----------
Test: Plasma pharmacokinetics of Compound 2 in PD participants (LC-MS/MS)
Type: in vivo, human
Settings: human, plasma, po, 4 mg, plasma, Day 1; ROW, Low 4 mg oral, n = 4; read-out: AUC0-24, Geometric mean
Description: Participants were randomised to 3 doses of once-daily orally administered Compound 2 or placebo, in sequential cohort design, and were followed up to 36 weeks (52 weeks for Japanese participants). […] The secondary outcome was to evaluate the pharmacokinetic profile of Compound 2 in plasma and cerebrospinal fluid (CSF) over a 4-week period. […] All parameters were assessed at Week 0 and Week 4 after treatment. […]
RESULT TYPE: AUC(0-t) (µg·h/mL)
Numeric answer only, unit µg·h/mL assumed.

Report AUC(0-t) for CC(C)(NC(=O)O[C@@H]1CN2CCC1CC2)c1csc(-c2ccc(F)cc2)n1 please.
0.249

----------
Assay: Plasma pharmacokinetics of Compound 2 in PD participants (LC-MS/MS)
Format: in vivo, human
Conditions: human, plasma, po, 4 mg, plasma, Week 4; ROW, Low 4 mg once daily oral, n = 4; read-out: AUC0-24, Geometric mean
RESULT TYPE: AUC(0-t) (ng·h/mL)
Numeric answer only, unit ng·h/mL assumed.

Report AUC(0-t) for CC(C)(NC(=O)O[C@@H]1CN2CCC1CC2)c1csc(-c2ccc(F)cc2)n1 [Compound 2] please.
763

----------
Assay: Plasma pharmacokinetics of Compound 2 in PD participants (LC-MS/MS)
Format: in vivo, human
Conditions: human, plasma, po, 15 mg, plasma, Week 4; ROW, High 15 mg once daily oral, n = 4; read-out: tmax, median
RESULT TYPE: Tmax

Report Tmax for CC(C)(NC(=O)O[C@@H]1CN2CCC1CC2)c1csc(-c2ccc(F)cc2)n1 please.
2.89 h

----------
Experiment: Plasma pharmacokinetics of Compound 2 in PD participants (LC-MS/MS)
Format: in vivo, human
Settings: human, plasma, po, 4 mg, plasma, Week 4; Japan, Low 4 mg once daily oral, n = 3; read-out: tmax, median
RESULT TYPE: Tmax (h)
Numeric answer only, unit h assumed.

Report Tmax for CC(C)(NC(=O)O[C@@H]1CN2CCC1CC2)c1csc(-c2ccc(F)cc2)n1 please.
4.33

----------
Test: Plasma pharmacokinetics of Compound 2 in PD participants (LC-MS/MS)
Assay type: in vivo, human
Settings: human, plasma, po, 8 mg, plasma, Day 1; ROW, Mid 8 mg oral, n = 5; read-out: Cmax, Geometric mean
RESULT TYPE: Cmax (ng/mL)
Numeric answer only, unit ng/mL assumed.

Report Cmax for CC(C)(NC(=O)O[C@@H]1CN2CCC1CC2)c1csc(-c2ccc(F)cc2)n1 please.
23.8

----------
Assay: Plasma pharmacokinetics of Compound 2 in PD participants (LC-MS/MS)
Assay type: in vivo, human
Conditions: human, plasma, po, 4 mg, plasma, Week 4; ROW, Low 4 mg once daily oral, n = 4; read-out: tmax, median
RESULT TYPE: Tmax (h)
Numeric answer only, unit h assumed.

Report Tmax for CC(C)(NC(=O)O[C@@H]1CN2CCC1CC2)c1csc(-c2ccc(F)cc2)n1 please.
1.96

----------
Experiment: Plasma pharmacokinetics of Compound 2 in PD participants (LC-MS/MS)
Format: in vivo, human
Conditions: human, plasma, po, 8 mg, plasma, Day 1; Japan, Mid 8 mg oral, n = 3; read-out: AUC0-48, mean
Procedure: Participants were randomised to 3 doses of once-daily orally administered Compound 2 or placebo, in sequential cohort design, and were followed up to 36 weeks (52 weeks for Japanese participants). […] The secondary outcome was to evaluate the pharmacokinetic profile of Compound 2 in plasma and cerebrospinal fluid (CSF) over a 4-week period. […] All parameters were assessed at Week 0 and Week 4 after treatment. […]
RESULT TYPE: AUC(0-t) (ng·h/mL)
Numeric answer only, unit ng·h/mL assumed.

Report AUC(0-t) for CC(C)(NC(=O)O[C@@H]1CN2CCC1CC2)c1csc(-c2ccc(F)cc2)n1 please.
1130

----------
Experiment: Plasma pharmacokinetics of Compound 2 in PD participants (LC-MS/MS)
Type: in vivo, human
Conditions: human, plasma, po, 4 mg, plasma, Week 4; ROW, Low 4 mg once daily oral, n = 4; read-out: AUC0-24, mean
RESULT TYPE: AUC(0-t) (ng·h/mL)
Numeric answer only, unit ng·h/mL assumed.

Report AUC(0-t) for CC(C)(NC(=O)O[C@@H]1CN2CCC1CC2)c1csc(-c2ccc(F)cc2)n1 [Compound 2] please.
766

----------
Assay: Plasma pharmacokinetics of Compound 2 in PD participants (LC-MS/MS)
Format: in vivo, human
Settings: human, plasma, po, 8 mg, plasma, Day 1; ROW, Mid 8 mg oral, n = 5; read-out: AUC0-24, mean
Procedure: Participants were randomised to 3 doses of once-daily orally administered Compound 2 or placebo, in sequential cohort design, and were followed up to 36 weeks (52 weeks for Japanese participants). […] The secondary outcome was to evaluate the pharmacokinetic profile of Compound 2 in plasma and cerebrospinal fluid (CSF) over a 4-week period. […] All parameters were assessed at Week 0 and Week 4 after treatment. […]
RESULT TYPE: AUC(0-t) (ng·h/mL)
Numeric answer only, unit ng·h/mL assumed.

Report AUC(0-t) for CC(C)(NC(=O)O[C@@H]1CN2CCC1CC2)c1csc(-c2ccc(F)cc2)n1 please.
457

----------
Assay: Plasma pharmacokinetics of Compound 2 in PD participants (LC-MS/MS)
Type: in vivo, human
Conditions: human, plasma, po, 8 mg, plasma, Day 1; ROW, Mid 8 mg oral, n = 5; read-out: AUC0-48, mean
RESULT TYPE: AUC(0-t) (ng·h/mL)
Numeric answer only, unit ng·h/mL assumed.

Report AUC(0-t) for CC(C)(NC(=O)O[C@@H]1CN2CCC1CC2)c1csc(-c2ccc(F)cc2)n1 [Compound 2] please.
776

----------
Test: Plasma pharmacokinetics of Compound 2 in PD participants (LC-MS/MS)
Type: in vivo, human
Conditions: human, plasma, po, 15 mg, plasma, Day 1; Japan, High 15 mg oral, n = 3; read-out: AUC0-48, mean
RESULT TYPE: AUC(0-t) (ng·h/mL)
Numeric answer only, unit ng·h/mL assumed.

Report AUC(0-t) for CC(C)(NC(=O)O[C@@H]1CN2CCC1CC2)c1csc(-c2ccc(F)cc2)n1 [Compound 2] please.
1590

----------
Assay: Plasma pharmacokinetics of Compound 2 in PD participants (LC-MS/MS)
Type: in vivo, human
Settings: human, plasma, po, 4 mg, plasma, Week 4; Japan, Low 4 mg once daily oral, n = 1; read-out: AUC0-24, mean
RESULT TYPE: AUC(0-t)

Report AUC(0-t) for CC(C)(NC(=O)O[C@@H]1CN2CCC1CC2)c1csc(-c2ccc(F)cc2)n1 please.
1130 ng·h/mL

----------
Test: Plasma pharmacokinetics of Compound 2 in PD participants (LC-MS/MS)
Assay type: in vivo, human
Settings: human, plasma, po, 8 mg, plasma, Week 4; ROW, Mid 8 mg once daily oral, n = 5; read-out: tmax, median
Protocol: Participants were randomised to 3 doses of once-daily orally administered Compound 2 or placebo, in sequential cohort design, and were followed up to 36 weeks (52 weeks for Japanese participants). […] The secondary outcome was to evaluate the pharmacokinetic profile of Compound 2 in plasma and cerebrospinal fluid (CSF) over a 4-week period. […] All parameters were assessed at Week 0 and Week 4 after treatment. […]
RESULT TYPE: Tmax
// return the numeric value with its unit appended

Report Tmax for CC(C)(NC(=O)O[C@@H]1CN2CCC1CC2)c1csc(-c2ccc(F)cc2)n1 please.
3.55 h

Values compiled from patent US20230372313A1.
